Below: a set of entries, each annotated with reported Plant response rating, Morningglory.
# Tested on: morningglory (Ipomoea coccinea)
# assayComment: Test C greenhouse herbicide test, pre- and postemergence
# Format: in vivo
# measurementSetup: Preemergence, 31 g ai/ha; scale 0 to 100, 0 is no effect, 100 is complete control

In [3]: df
Out[3]:
                                   molecule  reported
0  COc1nn(C)c(=O)c(-c2c(C)ccc3ccccc23)c1OC(=O)OC(C)C [Compound 36]        80
1  COC(=O)Oc1c(C)nn(C)c(=O)c1-c1c(C)sc2c(C)cc(C)cc12 [Compound 81]        80

The observed Plant response rating, Morningglory for COc1nn(C)c(=O)c(-c2c(C)ccc3ccccc23)c1OC(C)=O [Compound 138] when tested with morningglory (Ipomoea coccinea) stands at 80

All figures here come from patent US10597388B2.
